The following binders are shown together with reported aPTT1.5 (concentration prolonging aPTT by 50% relative to PBS), monkey blood values.
# testedSystem: monkey FXI (in monkey plasma) (monkey)
# assayRemarks: cell-based or functional assay
The answer should read as a number with its unit following.

antibody 1209 (0012-K3) (antibody, human IgG1, kappa, V domains shown) VH: QVQLQQSGAEVKKPGASVKVSCKVSGYTLTSILMHWVRQAPGKGLEWMGGFDPQDGETVYAQKFQGRVTMTEDTSTDTAYMELSSLRSEDTAVYYCATDPHRTWWRYFDWLYPRGMDVWGQGTTVTVSS VL: EIVMTQSPGTLSLSPGERATLSCRASQTVGKNYLAWYQQKPGQAPRLLIYEASVRALGIPDRFSGSGSGTDFTLTISRLEPEDFGTYYCQQFRSYPYTFGQGTKVEIKR | 4.08 µg/mL
antibody 3807 (antibody, V domains shown, Murine variable regions; also called murine antibody 3807; hybridoma clone 3807) VH: EVQLQQSGAELVRPGTSVKLSCIASGFNIKDDYMHWVKQRPEQGLEWIGWIDPENGDTEYASKFQGKATITADTSANTAYLQFSSLTSEDTAVYYCLYGNFYYFDYWGQGTTLTVSS VL: QIVLTQSPAIMSASPGEKVTMTCSASSSINYMHWYQQKPGTSPKRWIYDTSKLASGVPARFSGSGSGTSYSLTISSMEAEDAATYYCHQRSFSPLTFGAGTKLELK | 1 µg/mL

Now for the binder whose aPTT1.5 (concentration prolonging aPTT by 50% relative to PBS), monkey blood we want.
Notebook: antibody 3882 (antibody, human IgG4 S228P, kappa, V domains shown) VH: QVQLVQSGAEVKKPGSSVKVSCKASGGTFSDDYMHWVRQAPGQGLEWMGWIDPENGDTEYASKFQGRVTITADESTSTAYMELSSLRSEDTAVYYCLYGNFYYFDYWGQGTTVTVSS VL: EIVLTQSPATLSLSPGERATLSCSASSSINYMHWYQQKPGQAPKRWIYDTSKLASGVPARFSGSGSGTDFTLTISSLEPEDFAVYYCHQRSFSPLTFGQGTKLEIKR , aPTT1.5 (concentration prolonging aPTT by 50% relative to PBS), monkey blood read as 1.14 µg/mL
